# Test system: KRAS G12D G12D, P01116-2
# condition_set: Nap-dU at n (6) positions [5,11,13,19,21,23,28,36,38,42-44]; ELISA, SB18, 37 C
attribute_measured: Kd (nM)
Report the value in nM with no unit label.

Any idea what its Kd is? The sequence is CAGGTCGAGCTGTACGCGTGTGTGACCTGAAGACGTATAACTTT [AD045] 20

---

# study_target: human serum albumin (HSA) (Homo sapiens)
# condition_set: Nap-dU at n (6) positions [5,11,13,19,21,23,28]; ELISA, SB18, 37 C
attribute_measured: Kd (nM)
Report the value in nM with no unit label.

Lookup: Kd / human serum albumin (HSA) (Homo sapiens) / CAGGTCGAGCTGTACGCGTGTGTGACCTGAAGAC [AD043] 4.18

---

# study_target: human serum albumin (HSA) (Homo sapiens) (UniProt P02768)
# condition_set: Nap-dU at n (6) positions [8,10-11,13,18-19,24,26,29,36,39]; ELISA, SB18, 37 C
attribute_measured: pKd
The read-out pKd is expressed as -log10 of concentration in moles per litre.

Any idea what its pKd is? The sequence is CCCCGCCTCTTCTGAAGTTAACATGTGCTCCGAGATGGTA [AD011] 8.26

---

# Tested on: KRAS G12D G12D, P01116-2
# condition_set: Nap-dU at n (6) positions [17,23,30,31,32,44]; ELISA, SB18, 37 C
attribute_measured: pKd
The read-out pKd is expressed as -log10 of concentration in moles per litre.

Lookup: pKd / KRAS G12D G12D, P01116-2 / ACCGTCTGCCTGAAAGTCCGGATGGCAGCTTTACAGGCAGAACTAACG [TD007] 5.67

---

# study_target: human serum albumin (HSA) (Homo sapiens) (UniProt P02768)
# condition_set: Nap-dU at n (6) positions [1,3,10,15,16,17,23,25,27,29,37]; ELISA, SB18, 37 C
attribute_measured: Kd (nM)
Report the value in nM with no unit label.

Any idea what its Kd is? The sequence is TCTCCAACCTCGCCTTTACAACTATATCTGACGAACTAACA [AB003] 19.8

---

# study_target: human serum albumin (HSA) (Homo sapiens) (UniProt P02768)
# condition_set: Nap-dU at n (6) positions [1,7,9,15,17,19,24,32,34,38,39,40,41,48,50]; ELISA, SB18, 37 C
attribute_measured: Kd (nM)
Report the value in nM with no unit label.

Any idea what its Kd is? The sequence is TCGAGCTGTACGCGTGTGTGACCTGAAGACGTATAACTTTTACAGAATCTACA [AD053] 1.37
